Test system: NCI/ADR-RES
ASSAY TEXT: NCI tumour cell line growth inhibition, 48 h
Calls of active or inactive are those of the source. No stated cut-off is given here; in the data, active = GI50 up to about 1.1 µM and inactive = higher.
PROPERTY MEASURED: GI50

C=CC1CCC[N+]1(CC(=O)OCC)Cc1ccccc1 (stereo unspecified); > 100 µM (inactive)

Please turn your attention to the following entry.
Query: Recorded GI50 for `COc1ccc(/C=C2\C=Cc3ccccc32)cc1OC` , please?
Result: > 100 µM (inactive)

----------
Tested on: SF-539
ASSAY TEXT: NCI tumour cell line growth inhibition, 48 h
Calls of active or inactive are those of the source. Cut-off read from the data, not from the text of the source: active = GI50 up to about 1.1 µM and inactive = higher.
Tick one outcome: 1 (yes) = active, 0 (no) = inactive

Before answering, review these 5 worked examples.
C/C(=N\NC(=O)/C(C#N)=C\c1ccc(N(CCC#N)CCC#N)cc1)c1ccccc1; 0 (no)
CC[C@H](NC(=O)OC(C)(C)C)C(=O)NCP(=O)(OCc1ccc([N+](=O)[O-])cc1)OCc1ccc([N+](=O)[O-])cc1; 0 (no)
C[C@]12Cc3conc3C(O)=C1CC[C@@H]1C2CC[C@@]2(C)C1CC[C@@H]2O (stereo not given in full); 0 (no)
COc1ccc(C(C)NNC(=O)c2cc[n+]([BH2-]C#N)cc2)cc1OC (stereo not given); 0 (no)
CCCCCCCCCCCCCc1nnn[nH]1; 0 (no)

Query: Hi, do you know how CC(C)N(C(=O)C12C3C4C5C3C1(C(=O)N(C(C)C)C(C)C)C5(C#N)C42)C(C)C (stereo not given) came out in this test?
Result: 0 (no)

Query: # lookup: test call for `Cc1ccc(S(=O)(=O)c2ccc(N)cc2)cc1`
Result: 0 (no)

Query: Outcome? `CCOc1cc2ccc3c4cc(OC)c(OC)cc4cnc3c2cc1OCC`
Result: 0 (no)

Query: Dear colleague, could you share the recorded outcome for CCOP(=O)(OCC)C1=C(c2ccccc2)OC(N)=C(C#N)C1c1ccc(Cl)cc1 (stereo not given) when you have a moment?
Result: 0 (no)

Query: Hi team, can someone confirm the assay call for CCCC/C=C/C1Cc2ccccc2CN1S(=O)(=O)c1ccc(C)cc1 (stereo not given) ?
Result: 0 (no)

Query: Would you mind telling me which call this test gave CC(=O)OC(CN1CCN(c2ccccn2)CC1)Cn1sc2nc(C)cc(C)c2c1=O (stereo not given) ?
Result: 0 (no)

Query: Returns: the outcome recorded for `O=C(O)c1ccc(NNc2cc(=O)[nH]c(=O)[nH]2)cc1` in this assay.
Result: 0 (no)

Query: // return assay outcome for `CCCCC(C(=O)NCCNC(=O)CCC(=O)N(C)O)C(=O)NCCNC(=O)CCC(=O)N(C)O`
Result: 0 (no)

Query: For this molecule, state the assay outcome: `O=C(O)c1ccccc1/C=C1\Cc2ccc3c(c2C1=O)CCCC3`
Result: 0 (no)

----------
Tested on: NCI-H226
ASSAY TEXT: NCI tumour cell line growth inhibition, 48 h
Calls of active or inactive are those of the source. Rule as the data show it: active = GI50 up to about 1.1 µM and inactive = higher. *1 amine or outer side, *2 acyl side, *3 side chain or, on linkers, in order; H or OH if unused. Where a SMILES comes first, the peptide text is derived from it. Bridges are numbered along the chain shown (N, C = ends). Roman numbers before positions name the chains, in order. [ ]: non-standard residue; d: D form. Actinocin(9to1) = Cc1c2oc3c(C)ccc(C(=O)[*:1])c3nc-2c(C(=O)[*:2])c(N)c1=O; NMeV = CN[CH](C(=O)O)C(C)C; Sar = CNCC(=O)O
Return exactly one item of active, inactive

Consider the following illustrative entries.
CCOC(=O)c1ccc2nc3n(c2c1)C(c1c(F)cccc1F)SC3 (stereo unspecified); inactive
c1ccc(/N=C2\c3ccccc3CN2c2ccccn2)nc1; inactive
OC1CC(O)c2c(Cl)sc(Cl)c21 (stereo unspecified); inactive
NCCOc1ccccn1; inactive
OC(c1ccc(C(F)(F)F)cc1)C(F)(F)c1nc2ccccc2o1 (stereo unspecified); inactive

Query: Check the results log: what was the call for `CC[C@@]1(O)C(=O)OCc2c1cc1n(c2=O)Cc2cc3cc4c(cc3nc2-1)OCO4` ?
Result: active

Query: Can you look up the reported call for CCOC(=O)/C=C(/OCC)[C@@H]1C(C(=O)c2ccc(Cl)cc2)[C@@H]1/C(=C\C(=O)OCC)OCC (stereo partly specified) for me?
Result: inactive

Query: // outcome(item) with item = Cc1c2oc3c(C)ccc(C(=O)NC4C(=O)NC(Cc5ccccc5)C(=O)N5CCCC5C(=O)N(C)CC(=O)N(C)C(C(C)C)C(=O)OC4C)c3nc-2c(C(=O)NC2C(=O)NC(Cc3ccccc3)C(=O)N3CCCC3C(=O)N(C)CC(=O)N(C)C(C(C)C)C(=O)OC2C)c(N)c1=O (stereo unspecified) (I: TFP[Sar][NMeV] / II: TFP[Sar][NMeV]; ester I:1-I:C, II:1-II:C; linker I:N-II:N via Actinocin(9to1); configuration not given here)
Result: active

Query: Record request — test call for `CCc1nc(N)nc(C(=O)NCCNC(=O)c2nc(N)nc(CC)c2C)c1C`
Result: inactive

Query: Each compound tested received a call. Report the one for `O=[N+]([O-])/C=C/c1cc(Cl)c(/C=C/[N+](=O)[O-])cc1Cl` .
Result: inactive

Query: So what was the verdict on Nc1ccc(C(=O)CC2(O)C(=O)Nc3c(Cl)cc(Cl)cc32)cc1 (stereo unspecified) in this test?
Result: inactive

Query: Please share the test call associated with `C/N=C(\N)c1ccc(NC(=N)c2ccc(C(=N)Nc3ccc(/C(N)=N/C)cc3)cc2)cc1` .
Result: inactive

Query: Test call for this compound, please: COc1cccc(C2C(C(=O)O)=C(CO)Oc3cc4c(cc32)OCO4)c1 (stereo unspecified)
Result: inactive

Query: Could you kindly confirm the outcome this assay logged for CCOc1ccccc1/N=N/C1C(=O)N(C(=O)CC(=O)Nc2ccccc2C)N=C1C (stereo unspecified) ?
Result: inactive

Query: Name the outcome recorded for CCCOC(=O)c1cc(C(=CCC[C@H]2CC[C@@]3(C)[C@@H](CC[C@@H]4[C@@H]3CC[C@]3(C)[C@@H](C(C)CCCC(C)C)CC[C@@H]43)C2)c2cc(Cl)c(O)c(C(=O)OCCC)c2)cc(Cl)c1O (stereo partly specified) in the assay.
Result: inactive

Query: # fetch the recorded call for CC(=O)N1N=C(c2ccc3ccccc3c2O)CC1c1ccc(Cl)cc1Cl (stereo unspecified) here
Result: inactive

Query: Recorded test call requested for `COCCc1c(C)c(C#N)c2n(C)c3ccccc3n2c1=O`
Result: inactive

Query: Short answer needed: outcome of this test for `CSCCOC(=O)C(=[N+]=[N-])c1ccc([N+](=O)[O-])cc1` ?
Result: inactive

Query: Check the results log: what was the call for `CCOC(=O)c1[nH]cc(C)c1-c1ccc2c(-c3ccccc3)nc3ccccc3n12` ?
Result: inactive

Query: What did the test return for CC1=NN(c2cccc(Cl)c2)C2(SCC(=O)N2c2nc3ccccc3s2)/C1=C\c1ccccc1O (stereo unspecified) ?
Result: inactive

Query: Can you look up the reported call for `N=C(N)N/N=C/c1c(-c2ccc(Cl)cc2)nc2sc(Cl)cn12` for me?
Result: inactive

Query: What did this assay record as the result for Cc1ccc(C)c2c1CC(Cc1ccccc1C(=O)O)C2=O (stereo unspecified) ?
Result: inactive

Query: Check the results log: what was the call for `O=C(O)c1ccc(NNc2cc(=O)[nH]c(=O)[nH]2)cc1` ?
Result: inactive
